The reported numbers originate from patent US20170008955A1.

# Subject of test: T1, cSNK:BSA conjugate (bovine, head-to-tail cyclized; conjugated to BSA carrier)
# T1 construct: also called BSA-cSNK
# Assay method text: BLI 2:1 fit, site 2 (KD2); 12.5 nM row
# Description: Biolayer interferometry (Octet […], ForteBio) was used to qualitatively/quantitatively assess the interactions between humanized versions of 5E3 and cSNK:BSA conjugate. […] MAbs were loaded onto sensors and then washed in PBST. Each sensor was associated with one of several cSNK:BSA standards (100 nM to 0 nM) and then washed in PBST. […] For each mAb analyzed, a 2:1 model provided the “best fit”.
pKd: −log10 of the molar value.

Binder: murine monoclonal antibody 5E3 (antibody, V domains shown, mouse antibody of the 5E3 hybridoma; also called murine 5E3; m5E3) VH: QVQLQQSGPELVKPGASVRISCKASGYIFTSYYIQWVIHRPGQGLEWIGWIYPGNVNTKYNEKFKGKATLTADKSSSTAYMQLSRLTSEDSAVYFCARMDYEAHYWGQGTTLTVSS VL: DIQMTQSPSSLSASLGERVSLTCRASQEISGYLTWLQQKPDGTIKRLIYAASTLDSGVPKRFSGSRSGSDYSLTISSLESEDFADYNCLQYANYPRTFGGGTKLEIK
pKd: 8.80
